experimentalTarget: Alpha-1B adrenergic receptor (Rattus norvegicus, UniProt P15823)
Sequence (P15823 whole entry): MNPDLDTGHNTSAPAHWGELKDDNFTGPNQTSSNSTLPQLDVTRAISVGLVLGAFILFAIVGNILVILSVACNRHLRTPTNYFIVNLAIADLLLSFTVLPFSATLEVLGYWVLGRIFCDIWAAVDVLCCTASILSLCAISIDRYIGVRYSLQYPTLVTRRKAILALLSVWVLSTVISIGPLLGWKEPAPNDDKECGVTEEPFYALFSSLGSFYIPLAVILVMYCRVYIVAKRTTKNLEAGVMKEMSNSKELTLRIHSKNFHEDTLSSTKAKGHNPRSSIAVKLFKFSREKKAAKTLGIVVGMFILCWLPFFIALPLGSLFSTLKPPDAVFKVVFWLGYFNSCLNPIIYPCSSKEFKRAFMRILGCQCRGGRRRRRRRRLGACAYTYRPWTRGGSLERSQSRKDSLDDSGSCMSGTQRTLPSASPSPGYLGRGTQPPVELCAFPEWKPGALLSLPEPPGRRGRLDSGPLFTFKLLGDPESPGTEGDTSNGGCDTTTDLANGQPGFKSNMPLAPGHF
assay: Antagonist affinity [non competitive (irreversible)] at alpha-1B-adrenoceptors on isolated spleen from rat
pIC50: −log10 of the molar value.
Assign class by pIC50: not lower than 5 means Criterion met; lower than 5 means Criterion not met.

Some solved cases for reference:
[
  {
    "testSmiles": "COc1cc2nc(N(C)CCCCCCN(C)C(=O)c3ccc(CNCCCCCCNCCSSCCNCCCCCCNCc4ccc(C(=O)N(C)CCCCCCN(C)c5nc(N)c6cc(OC)c(OC)cc6n5)cc4)cc3)nc(N)c2cc1OC",
    "discreteLabel": "Criterion met"
  },
  {
    "testSmiles": "COc1cc2nc(N3CCN(C(=O)c4ccccc4CNCCCCCCNCCSSCCNCCCCCCNCc4ccccc4C(=O)N4CCN(c5nc(N)c6cc(OC)c(OC)cc6n5)CC4)CC3)nc(N)c2cc1OC",
    "discreteLabel": "Criterion met"
  },
  {
    "testSmiles": "COc1cc2nc(N3CCN(C(=O)c4cccc(CNCCCCCCNCCSSCCNCCCCCCNCc5cccc(C(=O)N6CCN(c7nc(N)c8cc(OC)c(OC)cc8n7)CC6)c5)c4)CC3)nc(N)c2cc1OC",
    "discreteLabel": "Criterion not met"
  }
]

Textbook exercise: given the entry COc1cc2nc(N(C)CCCCCCN(C)C(=O)c3ccccc3CNCCCCCCNCCSSCCNCCCCCCNCc3ccccc3C(=O)N(C)CCCCCCN(C)c3nc(N)c4cc(OC)c(OC)cc4n3)nc(N)c2cc1OC , state whether its pIC50 is greater than or equal to 5.
Criterion met

I'd appreciate it if you could say whether COc1cc2nc(N(C)CCCCCCN(C)C(=O)c3cccc(CNCCCCCCNCCSSCCNCCCCCCNCc4cccc(C(=O)N(C)CCCCCCN(C)c5nc(N)c6cc(OC)c(OC)cc6n5)c4)c3)nc(N)c2cc1OC has pIC50 at least equal to 5.
Criterion met

Textbook exercise: given the entry COc1cc2nc(N3CCN(C(=O)c4ccc(CNCCCCCCNCCSSCCNCCCCCCNCc5ccc(C(=O)N6CCN(c7nc(N)c8cc(OC)c(OC)cc8n7)CC6)cc5)cc4)CC3)nc(N)c2cc1OC , state whether its pIC50 is greater than or equal to 5.
Criterion not met

Ref: ChEMBL document CHEMBL1134835
